The values you see were collected from BindingDB's records for doi:10.1124/jpet.103.052852.

- EXPERIMENTAL_TARGET: UniProt:P55055
- Sequence (P55055 whole entry): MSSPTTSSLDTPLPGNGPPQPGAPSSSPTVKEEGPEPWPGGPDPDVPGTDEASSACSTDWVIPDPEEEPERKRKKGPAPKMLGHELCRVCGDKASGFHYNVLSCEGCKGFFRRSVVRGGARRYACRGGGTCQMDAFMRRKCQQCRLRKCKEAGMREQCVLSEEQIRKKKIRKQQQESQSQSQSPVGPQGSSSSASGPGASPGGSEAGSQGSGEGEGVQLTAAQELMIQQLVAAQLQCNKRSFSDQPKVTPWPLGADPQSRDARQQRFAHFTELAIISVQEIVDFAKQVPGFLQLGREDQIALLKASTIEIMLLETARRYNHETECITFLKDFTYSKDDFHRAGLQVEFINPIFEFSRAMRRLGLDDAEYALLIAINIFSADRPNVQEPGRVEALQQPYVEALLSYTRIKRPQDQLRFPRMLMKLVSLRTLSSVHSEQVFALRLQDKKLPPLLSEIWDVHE
MEASURED_ATTRIBUTE: Ki (nM)
Numbers only, in nM.

CC(C)(O)C1OC2CCC3(C)C(O)(CCC4Cc5c([nH]c6ccccc56)C43C)C2=CC1=O (configuration not stated) : 1100

INPUT: Would you mind telling me what Ki value was observed for CC(C)CC[C@H](O)[C@@H](C)[C@H]1CC[C@H]2[C@@H]3CC=C4C[C@@H](O)CC[C@]4(C)[C@H]3CC[C@]12C ?
OUTPUT: 490
